system: Aspergillus flavus; test: Antimicrobial activity against Aspergillus flavus NICM 524 assessed as growth inhibition by two fold serial dilution method; assay type: functional
Property Label: MIC (µg/mL)

Use these answered entries as a reference point.
Chemical String	Assayed System	MIC, µg/mL
Cc1nn(-c2ccc(-c3nnc(S)o3)cc2)c(=O)n1/N=C/c1cc(F)ccc1F	Aspergillus flavus	9.37
CCOC(=O)CSc1nnc(-c2ccc(-n3nc(C)n(N)c3=O)cc2)o1	Aspergillus flavus	150

P. Cc1nn(-c2ccc(-c3nnc(S)n3N)cc2)c(=O)n1N
Q. Cc1nn(-c2ccc(-c3nnc(S)o3)cc2)c(=O)n1/N=C/c1cccc(F)c1
Data request: Of P and Q , whose reported MIC is numerically smaller? // output: label of the selected item
Data returned: P

1. Cc1nn(-c2ccc(-c3nnc(S)o3)cc2)c(=O)n1N
2. Cc1nn(-c2ccc(-c3nnc(S)o3)cc2)c(=O)n1/N=C/c1ccccc1F
Data request: Please state the entry with greater MIC among 1 and 2 . In your reply, give the label of the chosen option.
Data returned: 1

I. Cc1nn(-c2ccc(-c3nnc(S)o3)cc2)c(=O)n1/N=C/c1ccco1
II. Cc1nn(-c2ccc(-c3nnc(S)o3)cc2)c(=O)n1/N=C/c1ccccc1Br
Data request: Choose between I and II : whose measured MIC value is numerically larger? Answer by stating the label of the chosen item.
Data returned: I

I. CSc1nnc(-c2ccc(-n3nc(C)n(N)c3=O)cc2)o1
II. Cc1nn(-c2ccc(-c3nnc(S)o3)cc2)c(=O)n1/N=C/c1ccc(F)cc1
Data request: Please indicate which entry, I or II , has the lower recorded MIC value. Selection: enter the item's label.
Data returned: II
(II: 75 µg/mL, I: 150 µg/mL)
